- tgt: Abscisic acid 8'-hydroxylase 3 (Arabidopsis thaliana, UniProt Q9FH76)
- Sequence (Q9FH76 whole entry): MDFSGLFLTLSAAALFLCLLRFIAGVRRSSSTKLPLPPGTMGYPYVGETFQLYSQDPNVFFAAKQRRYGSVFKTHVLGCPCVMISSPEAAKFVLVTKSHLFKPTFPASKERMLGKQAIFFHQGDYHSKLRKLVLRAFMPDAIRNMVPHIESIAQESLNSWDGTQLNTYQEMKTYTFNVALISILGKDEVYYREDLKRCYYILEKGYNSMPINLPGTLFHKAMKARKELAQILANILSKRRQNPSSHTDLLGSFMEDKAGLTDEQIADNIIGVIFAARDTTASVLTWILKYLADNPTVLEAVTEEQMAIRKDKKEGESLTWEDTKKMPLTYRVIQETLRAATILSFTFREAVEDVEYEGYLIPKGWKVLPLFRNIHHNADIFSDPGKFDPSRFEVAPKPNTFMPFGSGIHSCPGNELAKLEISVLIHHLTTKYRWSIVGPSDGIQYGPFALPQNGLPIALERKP
- assay-info: Inhibition of Arabidopsis recombinant CYP707A3
pKi: −log10 of the molar value.
measured-attribute: pKi

[a] C[C@H]1CCCC(C)(C)[C@@]1(O)/C=C/C=C\C(=O)O
[b] C[C@H]1CCC[C@H](O)[C@@]1(O)/C=C/C=C\C(=O)O
Please choose the item with the lower pKi value from this pair: a and b Use the label to indicate which entry you chose. a
(a: 5.85, b: 6.85)
